pIC50: −log10 of the molar value.
// compounds with reported pIC50 on human DGAT2 (hDGAT2) (Homo sapiens), multi-publication
MEASUREMENT_LABEL: pIC50

1) CC1(NC(=O)c2cnc3c(-c4cccc(OC(F)F)c4)nn(C4CCOCC4)c3c2)CS(=O)(=O)C1 | 7.74
2) Cc1ncc(OC(F)F)cc1-n1nc(CC(C)(C)O)c2cc(C(=O)NC3(C)CS(=O)(=O)C3)cnc21 | 6.15
3) CC1(NC(=O)c2ccc3c(-c4cccc(C(N)=O)c4)nn(-c4ccc(F)cc4)c3c2)CCS(=O)(=O)C1 (racemic) | 6.60
4) CC(C)n1nc(-c2cccc(OCC(F)F)c2)c2ncc(C(=O)NC3(C)CS(=O)(=O)C3)cc21 | 8.15

====

// compounds with reported IC50 on human DGAT2 (hDGAT2) (Homo sapiens, UniProt Q96PD7), multi-publication
Sequence (Q96PD7 whole entry): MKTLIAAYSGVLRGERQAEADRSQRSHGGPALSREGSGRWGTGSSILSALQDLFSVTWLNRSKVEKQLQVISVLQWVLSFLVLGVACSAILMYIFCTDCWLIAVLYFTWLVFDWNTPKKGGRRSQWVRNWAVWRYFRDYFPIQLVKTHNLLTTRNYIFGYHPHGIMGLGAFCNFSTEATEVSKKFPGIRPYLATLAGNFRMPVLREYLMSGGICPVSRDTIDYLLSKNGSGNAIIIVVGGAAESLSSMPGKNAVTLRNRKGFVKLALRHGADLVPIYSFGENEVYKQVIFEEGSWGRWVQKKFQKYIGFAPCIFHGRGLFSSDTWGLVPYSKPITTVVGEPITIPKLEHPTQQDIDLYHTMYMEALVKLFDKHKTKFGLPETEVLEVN
MEASUREMENT_LABEL: IC50 (nM)

1) O=C(NC1CCS(=O)(=O)C1)c1ccc2c(-c3cccc(OC(F)F)c3)cn(-c3ccc(F)cc3)c2c1 (single isomer, unassigned; enantiomer a) | 0.52
2) C[C@H](NC(=O)c1ccc2c(-c3ccccc3Cl)nn(-c3ccc(F)cc3)c2c1)c1cnc(C(F)(F)F)nc1 | 34
3) Cc1nc(C)c(CNC(=O)c2ccc(-c3cccc(C(F)(F)F)c3)c3c2CN(C(=O)NC(C)(C)C)CC3)s1 | 907

====

// molecules with reported pIC50 on UniProtKB Q96PD7, multi-publication
pIC50: −log10 of the molar value.
MEASUREMENT_LABEL: pIC50

1) Cc1ccnc(-c2cn(-c3ccc(F)cc3)c3cc(C(=O)NC4(C)CCS(=O)(=O)C4)ccc23)c1 (racemic) | 6.24
2) Cc1noc(C2CC2C(=O)NCc2ccc(-c3cccc(OC(F)(F)F)c3)c3c2CN(C(=O)NC2(C)CCS(=O)(=O)C2)CC3)n1 (stereo not shown) | 7.62
3) O=C(NCc1ccccn1)c1ccc2c(-c3ccccc3Cl)nn(-c3ccc(F)cc3)c2c1 | 6.31
4) CC(C)(C)NC(=O)N1CCc2c(-c3cccc(OC(F)(F)F)c3)ccc(C(=O)N3CCCCC3c3ccccc3)c2C1 (stereo not shown) | 5.06

====

// compounds with reported IC50 on human DGAT2 (hDGAT2) (Homo sapiens), multi-publication
MEASUREMENT_LABEL: IC50

1) CC(C)n1nc(-c2cc(OC(F)F)ccn2)c2ncc(C(=O)NC3(C)CS(=O)(=O)C3)cc21 | 690 nM
2) COC(=O)c1cccc(-c2ccc(CNC(=O)C3CCN(c4ccc(C(F)(F)F)cc4)CC3)c3c2CCN(C(=O)NC(C)(C)C)C3)c1 | 1.75 nM
3) CC(C)(C)NC(=O)N1CCc2c(-c3cccc(C(F)(F)F)c3)ccc(C(=O)NCCc3ccc(C(F)(F)F)cc3)c2C1 | 2420 nM
4) Cc1cc2nc(C(=O)NC3(C)CCS(=O)(=O)CC3)cn2c(C)c1Oc1ncc(F)cc1OCC(C)(F)F | 52 nM
5) Cc1noc(C2CC2C(=O)NCc2ccc(-c3cccc(OC(F)(F)F)c3)c3c2CN(CC(N)=O)CC3)n1 (stereo not shown) | 1240 nM
6) O=C(N[C@H]1CCOC1)c1cc2cc(Oc3ncccc3OCC(F)(F)F)ccn2n1 | > 9990 nM
7) CC(NC(=O)c1ccc(-c2cccc(C(F)(F)F)c2)c2c1CN(C(=O)NC(C)(C)C)CC2)c1nnc[nH]1 (stereo not shown) | 3840 nM
